Assay read-out pIC50 on Cyclin-dependent kinase 2 (Homo sapiens, UniProt P24941); records merged from the literature.
When answering, recall that pIC50 equals minus log10 of the concentration in mol/L, and write that number alone.

CS(=O)(=O)N1CC[C@H](Nc2ncc3cc(C#N)c(=O)n(C4CCCC4)c3n2)[C@H](F)C1 tested on Cyclin-dependent kinase 2 (Homo sapiens, UniProt P24941) gave pIC50: 7.77

Recorded pIC50 for CC(C)N1CCOc2c(F)cc(-c3nc(Nc4ccc(N5CCC(O)CC5)cn4)ncc3F)cc21 on Cyclin-dependent kinase 2 (Homo sapiens, UniProt P24941) was 7.44

Record O=S(=O)(NCCO)c1ccc(Nc2nc(Nc3ccc4[nH]ncc4c3)c3cnoc3n2)cc1 / Cyclin-dependent kinase 2 (Homo sapiens, UniProt P24941), pIC50 recorded as 6.74

Here CN(C)C(=O)c1sc2cnc(Nc3ccc(N4CCN(C(=O)C(O)CO)CC4)cn3)cc2c1C1CCCC1 (stereo not shown) was tested on Cyclin-dependent kinase 2 (Homo sapiens, UniProt P24941), and its pIC50 came to 7.17

Reported pIC50 (Cyclin-dependent kinase 2 (Homo sapiens, UniProt P24941)) for entry CS(=O)(=O)N1CCC(Nc2ncc3cc(C#N)c(=O)n(CC4CCCCC4)c3n2)CC1 is 6.66

Bench note, Cyclin-dependent kinase 2 (Homo sapiens, UniProt P24941): entry CC(C)c1[nH]nc2c1-c1nc(Nc3ccc(N4CCNCC4)cn3)ncc1CC2 , its pIC50 = 6.34

Query CC(C)c1c2c(nn1C)C1(CC1)c1cnc(Nc3ccc(N4CCNCC4)cn3)nc1-2 on Cyclin-dependent kinase 2 (Homo sapiens, UniProt P24941); pIC50 returned: 6.10

Entry N#Cc1cc2cnc(Nc3ccc4c(c3)CCN(CC(N)=O)C4)nc2n(C2CCCC2)c1=O ; assay system Cyclin-dependent kinase 2 (Homo sapiens, UniProt P24941); pIC50 recorded at 6.60
